target: human dimethylglycine dehydrogenase (hDMGDH) (Homo sapiens, UniProt Q9UI17); construct: covalent FAD at His91; assay: stopped flow, FAD reduction at […] nm, hyperbolic fit of kobs; conditions: anaerobic, 50 mM HEPES/NaOH, 150 mM NaCl, pH 7.8, 25 °C; pre-steady-state; read-out: K D,DMG
Sequence (Q9UI17 29-866): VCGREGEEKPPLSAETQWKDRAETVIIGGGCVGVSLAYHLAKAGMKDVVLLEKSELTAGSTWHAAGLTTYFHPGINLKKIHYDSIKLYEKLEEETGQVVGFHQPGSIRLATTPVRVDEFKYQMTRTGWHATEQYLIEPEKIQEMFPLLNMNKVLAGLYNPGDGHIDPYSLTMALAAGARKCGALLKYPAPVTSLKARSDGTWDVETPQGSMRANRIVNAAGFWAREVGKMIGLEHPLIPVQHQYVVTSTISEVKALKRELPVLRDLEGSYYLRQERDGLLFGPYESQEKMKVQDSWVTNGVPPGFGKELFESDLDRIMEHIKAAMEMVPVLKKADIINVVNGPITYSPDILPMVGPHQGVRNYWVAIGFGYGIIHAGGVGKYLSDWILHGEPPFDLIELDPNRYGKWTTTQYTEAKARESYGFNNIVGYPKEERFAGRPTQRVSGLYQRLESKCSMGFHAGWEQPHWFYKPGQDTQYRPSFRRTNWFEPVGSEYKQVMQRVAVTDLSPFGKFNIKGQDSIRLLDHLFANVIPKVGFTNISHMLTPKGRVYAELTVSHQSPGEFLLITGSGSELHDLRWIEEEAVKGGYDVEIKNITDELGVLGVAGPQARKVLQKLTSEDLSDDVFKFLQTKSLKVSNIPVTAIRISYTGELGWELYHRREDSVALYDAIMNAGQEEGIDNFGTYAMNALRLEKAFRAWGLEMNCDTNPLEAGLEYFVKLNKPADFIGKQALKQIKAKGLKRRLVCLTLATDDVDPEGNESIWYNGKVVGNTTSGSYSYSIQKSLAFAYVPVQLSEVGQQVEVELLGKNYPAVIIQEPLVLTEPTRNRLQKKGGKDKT
Attribute measured: Kd (mM)
Provide only the numeric value, understood in mM.

Look up Kd: CN(C)CC(=O)O
4.9
